B1: Double-stranded RNA-binding protein Staufen homolog 1, residues 183 to 249; numbered along this chain, O95793 (parent)
chain: KSEISQVFEIALKRNLPVNFEVARESGPPHMKNFVTKVSVGEFVGEGEGKSKKISKKNAAIAVLEEL

# Variants of: B1
# assay_info: abundance fitness (aPCA) (normalised: wild type 0, dead -1); higher = more abundant; growth selection in yeast, the domain comes from the species named
# assay_context: Homo sapiens
Field: class. Source value: abundance fitness. Ranges: range 1: < -0.4; range 2: ≥ -0.4 and < -0.2; range 3: ≥ -0.2

# variant_spec, group
records = [
    ("H30P", "range 2"),
    ("E3G", "range 1"),
    ("Q6P", "range 1"),
    ("K52I", "range 3"),
    ("E9F", "range 1"),
    ("R24D", "range 3"),
    ("G27A", "range 2"),
    ("E21L", "range 3"),
    ("L16S", "range 1"),
    ("K52H", "range 1"),
    ("L12P", "range 1"),
    ("P28M", "range 2"),
    ("V35H", "range 3"),
    ("V38F", "range 2"),
    ("E25A", "range 3"),
    ("E21A", "range 3"),
    ("A11M", "range 1"),
    ("M31Y", "range 3"),
    ("I4K", "range 1"),
    ("I54L", "range 3"),
    ("K56I", "range 3"),
    ("E25T", "range 3"),
    ("E3D", "range 2"),
    ("S39R", "range 3"),
    ("A11L", "range 1"),
    ("E66N", "range 3"),
    ("G49T", "range 1"),
    ("V35P", "range 1"),
    ("F43G", "range 1"),
    ("P29F", "range 2"),
    ("K57S", "range 1"),
    ("K53A", "range 3"),
    ("K13W", "range 1"),
    ("N58F", "range 1"),
    ("S2R", "range 2"),
    ("K56M", "range 2"),
    ("Q6C", "range 2"),
    ("E3T", "range 2"),
    ("F43C", "range 2"),
    ("I54V", "range 3"),
    ("K1S", "range 2"),
]

Source: the Human Domainome abundance scans (Beltran et al. 2025)
